biological target: PDHK2 (Homo sapiens)
pIC50: −log10 of the molar value.
Below is a list of entries, each paired with its recorded pIC50 value.

Study these solved cases before continuing.
CC(C)Cn1nccc1C1CCN(C(=O)[C@@](C)(O)C(F)(F)F)CC1
4.30 to 5.52
C[C@@](O)(C(=O)N1CCC(c2ccnn2-c2ccccc2Cl)CC1)C(F)(F)F
> 6.52
C[C@@](O)(C(=O)N1CCC(c2ccnn2-c2ccc(C#N)cc2F)CC1)C(F)(F)F
5.52 to 6.52

Q) I have this compound here, C[C@@](O)(C(=O)N1CCC(c2ccnn2C2CCCCC2)CC1)C(F)(F)F , and I need its recorded pIC50.
A) 5.52 to 6.52

====

Below is a list of entries, each paired with its recorded pKd value.
biological target: human PDHK2 (12-407) (Homo sapiens)
pKd: −log10 of the molar value.

COc1ccc(-n2nccc2C2CCN(C(=O)[C@@](C)(O)C(F)(F)F)CC2)c(F)c1
> 6.52
Cc1csc(-n2nccc2C2CCN(C(=O)[C@@](C)(O)C(F)(F)F)CC2)n1
> 6.52
C[C@@](O)(C(=O)N1CCC(c2ccn(-c3ccc(Cl)cn3)n2)CC1)C(F)(F)F
5.52 to 6.52
C[C@@](O)(C(=O)N1CCC(c2ccnn2-c2cccc(Cl)c2F)CC1)C(F)(F)F
> 6.52
C[C@@](O)(C(=O)N1CCC(c2ccnn2-c2ccccc2Cl)CC1)C(F)(F)F
> 6.52
Cc1cc(C2CCN(C(=O)[C@@](C)(O)C(F)(F)F)CC2)n(-c2ccccc2)n1
> 6.52

Q) Reported pKd for human PDHK2 (12-407) (Homo sapiens), given Cc1cc(C2CCN(C(=O)[C@@](C)(O)C(F)(F)F)CC2)n(-c2ccc(F)cc2)n1 ?
A) > 6.52

Q) Another compound to look at: CC1CN(C(=O)[C@@](C)(O)C(F)(F)F)CCC1c1ccn(-c2ccc(F)cc2)n1 (stereo partly shown)
A) > 6.52

Q) Another compound to look at: C[C@@](O)(C(=O)N1CCC(c2ccn(-c3ccc(C(F)(F)F)cn3)n2)CC1)C(F)(F)F
A) 5.52 to 6.52

Q) Another compound to look at: C[C@@H]1CN(C(=O)[C@@](C)(O)C(F)(F)F)CC[C@@H]1c1ccnn1-c1ccc(C#N)cc1
A) > 6.52

Q) Another compound to look at: C[C@@](O)(C(=O)N1CCC(c2conc2-c2ccccc2)CC1)C(F)(F)F
A) > 6.52

Q) Another compound to look at: C[C@@](O)(C(=O)N1CCC(n2cncc2-c2ccc(Cl)cc2)CC1)C(F)(F)F
A) > 6.52

Q) Another compound to look at: C[C@@](O)(C(=O)N1CCC(n2ccnc2-c2ccccc2)CC1)C(F)(F)F
A) > 6.52

Q) Another compound to look at: C[C@@](O)(C(=O)N1CCC(c2ccnn2[C@H]2CC[C@H](O)CC2)CC1)C(F)(F)F
A) > 6.52

Q) Another compound to look at: Cc1cc(C2CCN(C(=O)[C@@](C)(O)C(F)(F)F)CC2)n(-c2ccc(F)cc2F)n1
A) > 6.52

Q) Another compound to look at: C[C@H]1CN(C(=O)[C@@](C)(O)C(F)(F)F)CC[C@H]1c1ccnn1-c1ccc(F)cc1
A) 5.52 to 6.52

Provenance of the data: patent US9751861B2
